A collection of compounds and their measured log10 of TD50
- METHOD_DESCRIPTION: Neurological toxicity in ip dosed albino CF1 mouse assessed as neurological impairment by rotarod test
- Type: organism-based
- REPORTED_CONDITIONS: in vivo
Scale type: logarithmic (base 10). Underlying TD50 unit: mg/kg.

Use these answered entries as a reference point.
COC[C@@H](NC(C)=O)C(=O)NCc1ccc(C#CC(C)(C)C)cc1; 1.48
COCC#Cc1ccc(CNC(=O)[C@@H](COC)NC(C)=O)cc1; 1.18
CCc1ccc(CNC(=O)[C@@H](COC)NC(C)=O)cc1; 1.48

We next turn to a different compound, shown below.
Entry under review: COC[C@@H](NC(C)=O)C(=O)NCc1ccc(OC(F)(F)F)cc1 . Reported log10 of TD50?
1.11

====

- METHOD_DESCRIPTION: Behavioral toxicity in po dosed albino Sprague-Dawley rat
- Assay type: organism-based
- REPORTED_CONDITIONS: in vivo
MEASURE_NAME: TD50

CCc1ccc(CNC(=O)[C@@H](COC)NC(C)=O)cc1; > 250 mg/kg
COC[C@@H](NC(C)=O)C(=O)NCc1cccc(F)c1; > 400 mg/kg

Which value of TD50 has been reported for COC[C@@H](NC(C)=O)C(=O)NCc1ccc(I)cc1 in the records?
> 500 mg/kg

// query: COC[C@@H](NC(C)=O)C(=O)NCc1ccc(Cl)cc1
> 200 mg/kg

What do you get for COC[C@@H](NC(C)=O)C(=O)NCc1ccc(C(C)C)cc1 ?
> 30 mg/kg

Same read-out for COC[C@@H](NC(C)=O)C(=O)NCc1ccc(N=[N+]=[N-])cc1 ?
> 250 mg/kg

====

Reported TD50 values for the following compounds.
- METHOD_DESCRIPTION: Neurological toxicity in ip dosed albino CF1 mouse assessed as neurological impairment by rotarod test
- Type: organism-based
- REPORTED_CONDITIONS: in vivo

Recorded TD50, per entry:
COC[C@@H](NC(C)=O)C(=O)NCc1ccc(NC(=O)C(F)(F)F)cc1; 100 mg/kg
COC[C@H](NC(C)=O)C(=O)NCc1ccc(C#N)cc1; > 300 mg/kg
COC[C@@H](NC(C)=O)C(=O)NCc1ccc(C=O)cc1; > 300 mg/kg
COC[C@@H](NC(C)=O)C(=O)NCc1ccccc1F; 100 mg/kg
CCCc1ccc(CNC(=O)[C@@H](COC)NC(C)=O)cc1; 13 mg/kg

Fill in the blank: the reported TD50 of COC[C@@H](NC(C)=O)C(=O)NCc1ccccc1OC(F)(F)F is ____.
100 mg/kg

Okay, and COC[C@@H](NC(C)=O)C(=O)NCc1ccc(Br)cc1 ?
30 mg/kg

Follow-up entry: COC[C@@H](NC(C)=O)C(=O)NCc1ccc(I)cc1
41 mg/kg

# repeat for COC[C@@H](NC(C)=O)C(=O)NCc1ccc(-c2ccccc2)cc1
11 mg/kg

One more compound: C=Cc1ccc(CNC(=O)[C@@H](COC)NC(C)=O)cc1
16 mg/kg

Another compound: COCCCc1ccc(CNC(=O)[C@@H](COC)NC(C)=O)cc1
62 mg/kg

And what about the compound COC[C@@H](NC(C)=O)C(=O)NCc1ccc(C(F)(F)F)cc1 ?
100 mg/kg

====

In this section we review reported TD50 values for a set of compounds.
- METHOD_DESCRIPTION: Behavioral toxicity in po dosed albino Sprague-Dawley rat
- Format: organism-based
- REPORTED_CONDITIONS: in vivo

COC[C@@H](NC(C)=O)C(=O)NCc1ccccc1F; > 30 mg/kg
COC[C@@H](NC(C)=O)C(=O)NCc1ccc(F)cc1; 125 mg/kg
COC[C@@H](NC(C)=O)C(=O)NCc1ccc(C(F)(F)F)cc1; > 280 mg/kg
COC[C@@H](NC(C)=O)C(=O)NCc1ccc(C)cc1; > 500 mg/kg

Need TD50 of COC[C@@H](NC(C)=O)C(=O)NCc1ccc(NC(=O)C(F)(F)F)cc1 , thanks.
> 30 mg/kg

Ok, now C#Cc1ccc(CNC(=O)[C@@H](COC)NC(C)=O)cc1
> 250 mg/kg

How about this compound: COC[C@H](NC(C)=O)C(=O)NCc1ccc(I)cc1
> 30 mg/kg

And what about the compound COC[C@H](NC(C)=O)C(=O)NCc1ccc(C#C[Si](C)(C)C)cc1 ?
> 30 mg/kg

Same again, this time with COC[C@@H](NC(C)=O)C(=O)NCc1ccc(C#N)cc1
> 30 mg/kg

====

- Tested on: Rattus norvegicus
- METHOD_DESCRIPTION: Protective index, ratio of TD50 for po dosed albino Sprague-Dawley rat to ED50 for po dosed albino Sprague-Dawley rat
- Format: functional
MEASURE_NAME: PI

Check out these entries, answers already filled in.
COC[C@@H](NC(C)=O)C(=O)NCc1ccccc1 [LACOSAMIDE]; >130
COC[C@@H](NC(C)=O)C(=O)NCc1ccccc1F; >2.7
CCc1ccc(CNC(=O)[C@@H](COC)NC(C)=O)cc1; >14
COC[C@@H](NC(C)=O)C(=O)NCc1ccc(C(F)(F)F)cc1; >57
COC[C@@H](NC(C)=O)C(=O)NCc1ccccc1OC(F)(F)F; >22
C=Cc1ccc(CNC(=O)[C@@H](COC)NC(C)=O)cc1; >20
COC[C@@H](NC(C)=O)C(=O)NCc1ccc(C)cc1; >62
COCC#Cc1ccc(CNC(=O)[C@@H](COC)NC(C)=O)cc1; 5.5
COC[C@@H](NC(C)=O)C(=O)NCc1ccc(F)cc1; >48
COC[C@@H](NC(C)=O)C(=O)NCc1ccc(I)cc1; >43

Here is the next item to consider.
Item under review: COC[C@@H](NC(C)=O)C(=O)NCc1ccc(OC)cc1 . Reported PI?
>18

====

Parameter PI: see the listing below.
- Test system: Rattus norvegicus
- METHOD_DESCRIPTION: Protective index, ratio of TD50 for po dosed albino Sprague-Dawley rat to ED50 for po dosed albino Sprague-Dawley rat
- Type: functional

Completed entries (count: 8):
COCc1ccc(CNC(=O)[C@@H](COC)NC(C)=O)cc1; >11
COC[C@@H](NC(C)=O)C(=O)NCc1ccc(Br)cc1; 61
COC[C@@H](NC(C)=O)C(=O)NCc1ccc(OC(F)(F)F)cc1; 37
COCCCc1ccc(CNC(=O)[C@@H](COC)NC(C)=O)cc1; >32
COC[C@@H](NC(C)=O)C(=O)NCc1ccc(Cl)cc1; >200
COC[C@@H](NC(C)=O)C(=O)NCc1ccc(N=[N+]=[N-])cc1; >64
C#Cc1ccc(CNC(=O)[C@@H](COC)NC(C)=O)cc1; >74
COC[C@@H](NC(C)=O)C(=O)NCc1cccc(F)c1; >58

Here's the next entry for you.
Name the reported PI value associated with the molecule COC[C@@H](NC(C)=O)C(=O)NCc1ccc(-c2ccccc2)cc1
>25

====

Reported TD50 values are given for each entry in this list.
- METHOD_DESCRIPTION: Neurological toxicity in ip dosed albino CF1 mouse assessed as neurological impairment by rotarod test
- Type: organism-based
- REPORTED_CONDITIONS: in vivo

Please review the entries below; each comes with its answer.
C=Cc1ccc(CNC(=O)[C@H](COC)NC(C)=O)cc1; > 300 mg/kg
C#Cc1ccc(CNC(=O)[C@H](COC)NC(C)=O)cc1; > 300 mg/kg
COC[C@H](NC(C)=O)C(=O)NCc1ccc(I)cc1; > 300 mg/kg
COC[C@@H](NC(C)=O)C(=O)NCc1ccc(S(N)(=O)=O)cc1; > 300 mg/kg

Given COC[C@@H](NC(C)=O)C(=O)NCc1ccc(CNC(=O)OC(C)(C)C)cc1 , state its recorded TD50.
> 300 mg/kg

Repeat for the following compound: COC[C@H](NC(C)=O)C(=O)NCc1ccc(N=[N+]=[N-])cc1
> 300 mg/kg

Next entry: COC[C@H](NC(C)=O)C(=O)NCc1ccc(C#C[Si](C)(C)C)cc1
100 mg/kg

What about COC[C@@H](NC(C)=O)C(=O)NCc1ccc(C(=O)O)cc1 ?
> 300 mg/kg

Further, for COC[C@@H](NC(C)=O)C(=O)NCc1ccc(C#N)cc1 ?
> 500 mg/kg

Queued: COC[C@@H](NC(C)=O)C(=O)NCc1ccc(C#C[Si](C)(C)C)cc1
3 mg/kg

# iterate: COC[C@@H](NC(C)=O)C(=O)NCc1cccc(OC(F)(F)F)c1
30 mg/kg

Next compound up: COC[C@@H](NC(C)=O)C(=O)NCc1ccc(N)cc1
> 300 mg/kg
